tested-on: UniProt:Q01959
assay-comment: Inhibition of [3H]dopamine uptake in HEK293 cells expressing recombinant Dopamine transporter
Assay type: cell-based
What Log 1/C was measured for each of the following?
One number for each entry.

Answered examples (4):
compound | Log 1/C
Fc1ccc(C(OCCN2CCN(C/C=C/c3ccccc3)CC2)c2ccc(F)cc2)cc1 (stereo in doubt; 15) | 7.08
Fc1ccc(/C=C/CN2CCN(CCOC(c3ccccc3)c3ccc(F)cc3)CC2)cc1 (stereo not given) | 7.22
O=C(CCCN1CCN(CCCc2ccccc2)CC1)N(Cc1ccccc1)c1ccccc1 | 7.12
Fc1ccc(C(OCCN2CCN(CCCc3ccccc3)CC2)c2ccccc2)cc1 (stereo not given) | 7.8

The record that follows has no Log 1/C shown yet.
// query Tell me Log 1/C reported for Fc1ccc(CN(CCN2CCN(CCCc3ccccc3)CC2)c2ccccn2)cc1
// result 6.24

====

What pKD was measured for each of the following?
tested-on: Sodium-dependent dopamine transporter (Homo sapiens)
assay-comment: Inhibition of radioligand [125I]RTI-55 binding to human Dopamine transporter in clonal cells
Assay type: cell-based
Answers are plain numbers.

Answered examples (8):
compound | pKD
Fc1ccc(C(OCCN2CCN(C/C=C/c3ccccc3)CC2)c2ccccc2)cc1 (centres undefined) | 7.48
O=C(/C=C/c1ccc(Cl)cc1)N1CCN(CCOC(c2ccc(F)cc2)c2ccc(F)cc2)CC1 | 6.37
Fc1ccc(C(OCCN2CCN(C/C=C/c3ccccc3)CC2)c2ccc(F)cc2)cc1 (stereo in doubt; 26) | 6.39
O=C(CN1CCN(CCCc2ccccc2)CC1)N(Cc1ccccc1)c1ccccc1 | 5.97
c1ccc(CCCN2CCN(CCCCCN(Cc3ccccc3)c3ccccc3)CC2)cc1 | 7.5
COc1ccc(/C=C/CN2CCN(CCOC(c3ccc(F)cc3)c3ccc(F)cc3)CC2)cc1 | 7.19
C(=C\c1ccccc1)/CN1CCN(CCN(Cc2ccccc2)c2ccccn2)CC1 | 6
COc1cccc(C(OCCN2CCN(C/C=C/c3ccccc3)CC2)c2cccc(Br)c2)c1 (centres undefined) | 6.88

The record that follows has no pKD shown yet.
// query Tell me pKD reported for Fc1ccc(C(OCCN2CCN(CCCc3ccccc3)CC2)c2ccccc2)cc1 (centres undefined)
// result 7.69

====

tested-on: Sodium-dependent dopamine transporter (Homo sapiens)
assay-comment: Inhibition of radioligand [125I]RTI-55 binding to human Dopamine transporter in clonal cells
Format: cell-based
reported-property: pKD
One number for each entry.

Give pKD for each of the items listed below.
1. Fc1ccc(CCCN2CCN(CCOC(c3ccccc3)c3ccc(F)cc3)CC2)cc1 (stereo unspecified)
2. O=C(CCCN1CCN(CCCc2ccccc2)CC1)N(Cc1ccccc1)c1ccccn1
3. Fc1ccc(CCCN2CCN(CCOC(c3ccccc3)c3ccccc3)CC2)cc1
4. c1ccc(CCCN2CCN(CCN(Cc3ccccc3)c3ccccn3)CC2)cc1
5. O=C(CCCCN1CCN(CCCc2ccccc2)CC1)N(Cc1ccccc1)c1ccccc1
6. Fc1ccc(C(OCCN2CCN(C/C=C/c3ccccc3)CC2)c2ccc(F)cc2)cc1 (stereo in doubt; 24)
7. Fc1ccc(/C=C/CN2CCN(CCOC(c3ccccc3)c3ccc(F)cc3)CC2)cc1 (stereo unspecified)

// result
[7.51, 6.25, 7.4, 7.04, 7.24, 7.76, 7.64]

====

tested-on: Sodium-dependent dopamine transporter (Homo sapiens) (UniProt Q01959)
Sequence (Q01959 whole entry): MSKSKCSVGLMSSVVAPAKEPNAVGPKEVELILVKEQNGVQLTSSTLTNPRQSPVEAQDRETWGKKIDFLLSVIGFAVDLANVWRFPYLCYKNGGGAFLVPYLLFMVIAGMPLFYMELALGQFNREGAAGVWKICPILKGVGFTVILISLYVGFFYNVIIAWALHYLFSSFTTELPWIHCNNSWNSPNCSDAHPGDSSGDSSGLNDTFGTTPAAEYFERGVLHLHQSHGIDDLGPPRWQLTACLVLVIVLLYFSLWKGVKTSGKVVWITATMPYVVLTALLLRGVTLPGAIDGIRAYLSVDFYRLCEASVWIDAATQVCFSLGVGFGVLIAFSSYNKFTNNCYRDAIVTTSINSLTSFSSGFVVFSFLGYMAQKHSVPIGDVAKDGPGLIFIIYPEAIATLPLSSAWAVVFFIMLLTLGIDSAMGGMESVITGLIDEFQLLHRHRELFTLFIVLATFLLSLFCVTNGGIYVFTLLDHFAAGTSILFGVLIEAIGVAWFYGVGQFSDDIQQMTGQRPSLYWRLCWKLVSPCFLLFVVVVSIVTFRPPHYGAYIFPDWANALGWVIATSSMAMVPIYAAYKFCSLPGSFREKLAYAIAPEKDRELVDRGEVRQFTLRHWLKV
assay-comment: Inhibition of [3H]dopamine uptake in HEK293 cells expressing recombinant Dopamine transporter
Format: cell-based
reported-property: Log 1/C
Numbers only.

compound | Log 1/C
c1ccc(CCCN2CCN(CCCCCN(Cc3ccccc3)c3ccccc3)CC2)cc1 | 5.83

Give Log 1/C for each of the items listed below.
1. Fc1ccc(CN(CCCN2CCN(CCCc3ccccc3)CC2)c2ccc(F)cc2)cc1
2. Fc1ccc(/C=C/CN2CCN(CCOC(c3ccc(F)cc3)c3ccc(F)cc3)CC2)cc1
3. c1ccc(CCCN2CCN(CCN(Cc3ccccc3)c3ccccc3)CC2)cc1
4. Fc1ccc(C(OCCN2CCN(C/C=C/c3ccccc3)CC2)c2ccc(F)cc2)cc1 (stereo in doubt; 26)
5. Fc1ccc(CN(CCCN2CCN(CCCc3ccccc3)CC2)c2ccccn2)cc1
6. c1ccc(CCCN2CCN(CCN(Cc3ccccc3)c3ccccn3)CC2)cc1
7. Fc1ccc(C(OCCN2CCN(C/C=C/Cc3ccccc3)CC2)c2ccc(F)cc2)cc1

// result
1: 6.82; 2: 6.96; 3: 5.96; 4: 6.97; 5: 6.91; 6: 6.91; 7: 6.86

Give Log 1/C for each of the items listed below.
1. CN(CCc1ccccc1)CCN1CCN(CCCc2ccccc2)CC1
2. Fc1ccc(C(OCCN2CCN(Cc3ccccc3)CC2)c2ccc(F)cc2)cc1
3. O=C(CCCCN1CCN(CCCc2ccccc2)CC1)N(Cc1ccccc1)c1ccccc1
4. Fc1ccc(C(OCCN2CCN(C/C=C/c3ccccc3)CC2)c2ccc(Cl)cc2Cl)cc1 (centres undefined)
5. COc1cccc(C(OCCN2CCN(C/C=C/c3ccccc3)CC2)c2cccc(Br)c2)c1 (centres undefined)
6. O=C(CCCN1CCN(CCCc2ccccc2)CC1)N(Cc1ccccc1)c1ccccn1
7. Fc1ccc(C(OCCN2CCN(C/C=C/c3ccccc3)CC2)c2ccccc2)cc1 (centres undefined)

// result
1. 6.85
2. 6.12
3. 6.92
4. 5.86
5. 6.05
6. 6.61
7. 7.1

Give Log 1/C for each of the items listed below.
1. Cc1ccc(/C=C/CN2CCN(CCOC(c3ccc(F)cc3)c3ccc(F)cc3)CC2)cc1
2. Fc1ccc(CCCN2CCN(CCOC(c3ccc(F)cc3)c3ccc(F)cc3)CC2)cc1

// result
1: 6.43; 2: 6.42

Give Log 1/C for each of the items listed below.
1. COc1ccc(N(CCN2CCN(CCCc3ccccc3)CC2)Cc2ccccc2)cc1
2. Fc1ccc(C(OCCN2CCN(C/C=C/c3ccccc3)CC2)c2ccc(F)cc2)cc1 (stereo in doubt; 24)
3. COc1ccc(/C=C/C(=O)N2CCN(CCOC(c3ccc(F)cc3)c3ccc(F)cc3)CC2)cc1

// result
[6.67, 8.38, 5.87]

====

tested-on: Sodium-dependent serotonin transporter (Homo sapiens) (UniProt P31645)
Sequence (P31645 whole entry, looked up): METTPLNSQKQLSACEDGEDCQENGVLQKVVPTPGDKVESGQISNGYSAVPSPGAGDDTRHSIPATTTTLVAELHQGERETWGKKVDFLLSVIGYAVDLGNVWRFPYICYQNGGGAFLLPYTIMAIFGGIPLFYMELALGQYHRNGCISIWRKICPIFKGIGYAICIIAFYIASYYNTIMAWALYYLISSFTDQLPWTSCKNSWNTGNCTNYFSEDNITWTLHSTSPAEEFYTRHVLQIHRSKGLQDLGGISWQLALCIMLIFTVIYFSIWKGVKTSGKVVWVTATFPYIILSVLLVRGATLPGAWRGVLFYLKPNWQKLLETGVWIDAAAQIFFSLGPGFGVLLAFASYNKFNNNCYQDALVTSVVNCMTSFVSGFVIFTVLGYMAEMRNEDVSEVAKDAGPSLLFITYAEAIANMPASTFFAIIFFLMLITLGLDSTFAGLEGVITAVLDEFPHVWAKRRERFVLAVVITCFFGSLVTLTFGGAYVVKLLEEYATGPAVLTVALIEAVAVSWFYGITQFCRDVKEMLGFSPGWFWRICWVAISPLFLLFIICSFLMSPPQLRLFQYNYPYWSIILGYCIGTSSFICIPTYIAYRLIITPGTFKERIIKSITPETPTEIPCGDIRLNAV
assay-comment: Inhibition of [125I]RTI-55 binding to human SERT in clonal cells
Format: cell-based
reported-property: pKD
Answers are plain numbers.

Answered examples (2):
smiles-representation | tested-on | pKD
Cc1ccc(/C=C/CN2CCN(CCOC(c3ccc(F)cc3)c3ccc(F)cc3)CC2)cc1 | Sodium-dependent serotonin transporter (Homo sapiens) (UniProt P31645) | 6.18
COc1ccc(OC)c(/C=C/C(=O)N2CCN(CCOC(c3ccc(F)cc3)c3ccc(F)cc3)CC2)c1 | Sodium-dependent serotonin transporter (Homo sapiens) (UniProt P31645) | 6.69

Give pKD for each of the items listed below.
1. Fc1ccc(C(OCCN2CCN(Cc3ccccc3)CC2)c2ccc(F)cc2)cc1
2. Fc1ccc(CCCN2CCN(CCOC(c3ccccc3)c3ccccc3)CC2)cc1
3. Fc1ccc(CCCN2CCN(CCOC(c3ccc(F)cc3)c3ccc(F)cc3)CC2)cc1

// result
1: 6.74; 2: 5.74; 3: 6.44

====

tested-on: Sodium-dependent dopamine transporter (Homo sapiens) (UniProt Q01959)
assay-comment: Inhibition of radioligand [125I]RTI-55 binding to human Dopamine transporter in clonal cells
Format: cell-based
reported-property: pKD
Answers are plain numbers.

molecule | pKD
COc1ccc(/C=C/C(=O)N2CCN(CCOC(c3ccc(F)cc3)c3ccc(F)cc3)CC2)cc1 | 6.31
Fc1ccc(CCCN2CCN(CCOC(c3ccc(F)cc3)c3ccc(F)cc3)CC2)cc1 | 8.25

Give pKD for each of the items listed below.
1. Cc1ccc(/C=C/C(=O)N2CCN(CCOC(c3ccc(F)cc3)c3ccc(F)cc3)CC2)cc1
2. Fc1ccc(CN(CCCN2CCN(CCCc3ccccc3)CC2)c2ccc(F)cc2)cc1
3. c1ccc(CCCN2CCN(CCCCN(Cc3ccccc3)c3ccccc3)CC2)cc1
4. COc1ccc(CN(CCN2CCN(CCCc3ccccc3)CC2)c2ccccn2)cc1

// result
1: 6.1; 2: 7.86; 3: 7.86; 4: 6.66

Give pKD for each of the items listed below.
1. Fc1ccc(/C=C/CN2CCN(CCOC(c3ccccc3)c3ccccc3)CC2)cc1
2. Brc1ccc(CN(CCN2CCN(CCCc3ccccc3)CC2)c2ccc(Br)cc2)cc1
3. Fc1ccc(C(OCCN2CCN(Cc3ccccc3)CC2)c2ccc(F)cc2)cc1
4. COc1ccc(N(CCN2CCN(CCCc3ccccc3)CC2)Cc2ccccc2)cc1
5. CN(CCc1ccccc1)CCN1CCN(CCCc2ccccc2)CC1
6. c1ccc(CCCN2CCN(CCN(Cc3ccccc3)c3ccccc3)CC2)cc1

// result
7.8
6.01
7.01
6.04
6.26
6.66

Give pKD for each of the items listed below.
1. COc1ccc(CN(CCCN2CCN(CCCc3ccccc3)CC2)c2ccccn2)cc1
2. Fc1ccc(C(OCCN2CCN(C/C=C/Cc3ccccc3)CC2)c2ccc(F)cc2)cc1
3. Fc1ccc(C(OCCN2CCN(C/C=C/c3ccc(Cl)cc3)CC2)c2ccc(F)cc2)cc1
4. Fc1ccc(CN(CCCN2CCN(CCCc3ccccc3)CC2)c2ccccn2)cc1

// result
[7.8, 8.29, 7.65, 7.95]

Give pKD for each of the items listed below.
1. O=C(/C=C/c1ccccc1Cl)N1CCN(CCOC(c2ccc(F)cc2)c2ccc(F)cc2)CC1
2. O=C(CCCN1CCN(CCCc2ccccc2)CC1)N(Cc1ccccc1)c1ccccc1
3. Cc1ccc(CN(CCN2CCN(CCCc3ccccc3)CC2)c2ccccc2)cc1

// result
[6.14, 7.56, 6.37]
